- System: Staphylococcus aureus
- procedure-details: Antibacterial activity against methicillin-resistant Staphylococcus aureus HK5996/08 clinical isolate after 48 hrs by microdilution assay
- Format: functional
- test-context: HK5996/08, 48 h
readout-name: MIC95

For orientation, consider the following solved cases.
[
  {
    "smi": "Cc1ccc(C2=C(c3ccc(F)cc3)C(=O)OC2)cc1",
    "MIC95": "> 500 µM"
  },
  {
    "smi": "O=C1OCC(c2ccc(C(F)(F)F)cc2)=C1c1c[nH]c2ccccc12",
    "MIC95": "> 125 µM"
  },
  {
    "smi": "COc1ccc(C2=C(c3c(Cl)cccc3Cl)C(=O)OC2)cc1",
    "MIC95": "> 500 µM"
  },
  {
    "smi": "COc1ccc(C2=C(c3ccc(Br)cc3)C(=O)OC2)cc1",
    "MIC95": "> 1000 µM"
  },
  {
    "smi": "COc1ccc(C2=C(c3ccc(OC)c(OC)c3)COC2=O)cc1",
    "MIC95": "> 125 µM"
  }
]

Kindly review the next molecule as well.
Problem: I would be grateful if you could share the reported MIC95 for COc1ccc(C2=C(c3ccc(S(C)(=O)=O)cc3)COC2=O)cc1 .
Solution: > 500 µM

The measurements presented in this section are drawn from ChEMBL document CHEMBL4251593.
